Form field: MIC (one value per entry).
Tested on: Micrococcus luteus
Assay: Antimicrobial activity against Micrococcus luteus ATCC 4698 after 24 hrs by microbroth dilution method
Format: functional
Details: NCTC 2665, 24 h
Record the result as a number with its unit.

{"compound smiles": "COc1ccc2cc3[n+](cc2c1OCCN(CCn1cnc2cc(C)c(C)cc21)Cc1ccc(F)cc1F)CCc1cc2c(cc1-3)OCO2.[Cl-]", "MIC": "16 µg/mL"}
{"compound smiles": "COc1ccc2cc3[n+](cc2c1OCCN(CCn1cncn1)Cc1ccc(Cl)cc1)CCc1cc2c(cc1-3)OCO2.[Cl-]", "MIC": "16 µg/mL"}

Please turn your attention to the following entry.
Query string: Please report the recorded MIC for COc1ccc2cc3[n+](cc2c1OCCN(CCn1cnc2ccccc21)Cc1ccc(F)cc1F)CCc1cc2c(cc1-3)OCO2.[Cl-] .
Result string: 16 µg/mL

The measured values listed here are drawn from ChEMBL document CHEMBL3217727.
